Biological target: T1, Recombinant human PSGL-1(ECD)-hFc1 (R&D Systems, Cat. 3345-PS) (human, UniProt Q14242 42-305)
T1 construct: Bought; Gln42-Val295 counted on AAC50061; also called PSGL-1-Fc; PSGL-1-hFc1 chimera; not shown: human IgG1 Fc, Pro100-Lys330
T1 sequence: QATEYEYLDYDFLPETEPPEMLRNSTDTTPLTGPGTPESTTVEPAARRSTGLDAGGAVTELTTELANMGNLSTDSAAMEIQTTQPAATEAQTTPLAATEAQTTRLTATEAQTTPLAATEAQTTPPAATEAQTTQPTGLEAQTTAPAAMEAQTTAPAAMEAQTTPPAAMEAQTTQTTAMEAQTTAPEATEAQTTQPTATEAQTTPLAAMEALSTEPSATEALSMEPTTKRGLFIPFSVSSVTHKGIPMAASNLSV
Test: ELISA, 50 nM mAb
observation type: A450nm (A450nm)
Kindly provide the numeric value in A450nm only, without the unit symbol.

// A450nm value for 09C10 (antibody, V domains shown) VH: EVKLLESGGGLIQPGGSLRLSCAASGFTVSNNYVTWVRQAPGKGLELVSSIYSGGGTYYADSVKGRFTISRDNSKNTVYLQMNSLRADDTAVYYCARNVPVTNFGYWGQGTLVTVSS VL: DIVMTQSPLSLPVTLGQPASISCRSSQSLVYRDGNTYLNWFQQRPGQSPRRLIYKVSNRDSGVPDRFSGSGSGTDFTLKISRVEAEDVGVYYCMQLTHWPPGFAQGTKLEIK : 2.16

// A450nm value for 09A08 (antibody, IgG4, V domains shown) VH: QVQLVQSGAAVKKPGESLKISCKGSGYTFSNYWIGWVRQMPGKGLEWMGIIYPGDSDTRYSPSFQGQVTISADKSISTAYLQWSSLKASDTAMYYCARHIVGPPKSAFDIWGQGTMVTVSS VL: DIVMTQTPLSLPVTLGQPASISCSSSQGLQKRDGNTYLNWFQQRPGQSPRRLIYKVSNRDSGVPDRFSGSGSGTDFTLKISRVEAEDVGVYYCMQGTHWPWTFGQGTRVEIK : 2.49

// A450nm value for 2E12 (antibody, V domains shown, Mouse hybridoma mAb; only variable domains given) VH: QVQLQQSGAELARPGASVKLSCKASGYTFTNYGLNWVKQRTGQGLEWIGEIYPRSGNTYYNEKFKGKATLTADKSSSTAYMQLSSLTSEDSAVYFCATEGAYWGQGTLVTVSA VL: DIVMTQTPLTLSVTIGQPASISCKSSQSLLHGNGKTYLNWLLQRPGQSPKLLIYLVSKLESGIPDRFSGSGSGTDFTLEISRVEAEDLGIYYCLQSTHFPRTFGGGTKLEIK : 1.99

// A450nm value for 03D07 (antibody, IgG4, V domains shown) VH: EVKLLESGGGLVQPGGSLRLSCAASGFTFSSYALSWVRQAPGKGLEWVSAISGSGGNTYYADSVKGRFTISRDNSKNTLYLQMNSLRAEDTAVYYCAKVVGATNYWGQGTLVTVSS VL: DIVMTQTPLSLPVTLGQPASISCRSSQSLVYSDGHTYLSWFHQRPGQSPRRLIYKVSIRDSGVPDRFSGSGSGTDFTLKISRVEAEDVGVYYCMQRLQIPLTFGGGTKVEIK : 2.25

// A450nm value for 10B03 (antibody, IgG4, V domains shown) VH: EVKLLESGGDLVQPGGSLRLSCAASGLTFSNYAMSWVRQAPGKGLEWVSAISGSGDNTYYADSVKGRFTISRDNSKNTLYLQMNSLRADDTAVYFCAKRDSWGQGTLVTVSS VL: QAVLTQPPSASGTPGQRVTISCSGSTSNIGSRDVYWYQHLPGTAPKLVIYRNDQRPSGVPDRFSGSKSGTSASLAISGLRSEDDADYYCAVWDNSLRGRVFGGGTKLTVL : 2.18
